Would you mind telling me the reported combination Emax of each entry?
- Test system: PC-3_[JPC-3] (Lung Adenocarcinoma)
- measurement-description: combination Emax (second highest fraction inhibited in the dose matrix, 72 h); higher = more inhibition; extreme values may be limits of the assay

Noted combination Emax for CN(C)CCCOc1ccc(-c2ccc3ncc4c(c3c2)n(C2CCOCC2)c(=O)n4C)cn1 [AZD0156] + C[C@@H]1COCCN1C2=NC(=NC(=C2)C3(CC3)[S@](=N)(=O)C)C4=C5C=CNC5=NC=C4 [AZD6738] (first compound max 1 µM, 7x7, partner max 10 µM) , tested on PC-3_[JPC-3] (Lung Adenocarcinoma): 0.329

Lab note: compound Cn1cnc2c(F)c(Nc3ccc(Br)cc3Cl)c(C(=O)NOCCO)cc21 [Selumetinib] + CC(C)n1c(=O)n(C)c2cnc3cc(F)c(-c4ccc(OCCCN5CCCCC5)nc4)cc3c21 [AZD1390] (first compound max 10 µM, 7x7, partner max 0.3 µM) tested on PC-3_[JPC-3] (Lung Adenocarcinoma); recorded combination Emax was 0.159

combination Emax on PC-3_[JPC-3] (Lung Adenocarcinoma) for NC1(C(=O)N[C@@H](CCO)c2ccc(Cl)cc2)CCN(c2ncnc3[nH]ccc23)CC1 [Capivasertib] + CC(=O)c1c(C)c2cnc(Nc3ccc(N4CCNCC4)cn3)nc2n(C2CCCC2)c1=O [Palbociclib] (first compound max 10 µM, 7x7, partner max 10 µM) is 0.398

###

- System: IST-MES1 (Mesothelioma)
- measurement-description: combination Emax (second highest fraction inhibited in the dose matrix, 72 h); higher = more inhibition; extreme values may be limits of the assay
Assign combination Emax to each entry below.
Keep it simple and answer with nothing but the number.

The value of combination Emax measured for the compound NC1(C(=O)N[C@@H](CCO)c2ccc(Cl)cc2)CCN(c2ncnc3[nH]ccc23)CC1 [Capivasertib] + CC(C)n1c(=O)n(C)c2cnc3cc(F)c(-c4ccc(OCCCN5CCCCC5)nc4)cc3c21 [AZD1390] (first compound max 10 µM, 7x7, partner max 0.3 µM) turned out to be 0.249

The compound CC1(C)CCC(CN2CCN(c3ccc(C(=O)NS(=O)(=O)c4ccc(NCC5CCOCC5)c([N+](=O)[O-])c4)c(Oc4cnc5[nH]ccc5c4)c3)CC2)=C(c2ccc(Cl)cc2)C1 [Venetoclax] + COc1cc(Nc2ncc3c(n2)-c2ccc(Cl)cc2C(c2c(F)cccc2OC)=NC3)ccc1C(=O)O [Alisertib] (first compound max 1 µM, 7x7, partner max 10 µM) showed combination Emax equal to 0.489

Notebook: CCN(CCO)CCCOc1ccc2c(Nc3cc(CC(=O)Nc4cccc(F)c4)[nH]n3)ncnc2c1 [AZD2811] + C[C@@H]1COCCN1C2=NC(=NC(=C2)C3(CC3)[S@](=N)(=O)C)C4=C5C=CNC5=NC=C4 [AZD6738] (first compound max 1 µM, 7x7, partner max 10 µM) , combination Emax read as 0.345

// recorded combination Emax for CN(CCO)CC[C@H](CSc1ccccc1)Nc1ccc(S(=O)(=O)NC(=O)c2ccc(N3CCC([C@@H](O)c4ccccc4-c4ccc(Cl)cc4)CC3)cc2)cc1S(=O)(=O)C(F)(F)F [AZD4320] + Cn1cnc2c(F)c(Nc3ccc(Br)cc3Cl)c(C(=O)NOCCO)cc21 [Selumetinib] (first compound max 1 µM, 7x7, partner max 3 µM) : 0.257

In plain terms, C[C@@H](c1ccc2nccn2c1)n1nnc2ncc(-c3cnn(C)c3)nc21 [Savolitinib] + Cc1c2c(nn1C)CSCc1cc(n(C)n1)CSc1cc(c3ccccc3c1)OCCCc1c(C(=O)O)n(C)c3c-2c(Cl)ccc13 [AZD5991] (first compound max 1 µM, 7x7, partner max 1 µM) has a documented combination Emax of 0.189

The value of combination Emax measured for the compound COc1nnc2ccc(N3CCC(c4ccc(OCCN5CCN(C)C(=O)[C@H]5C)cc4)CC3)nn12 [AZD5153] + C[C@@H]1COCCN1C2=NC(=NC(=C2)C3(CC3)[S@](=N)(=O)C)C4=C5C=CNC5=NC=C4 [AZD6738] (first compound max 1 µM, 7x7, partner max 10 µM) turned out to be 0.644

Consider N#Cc1cnc(Nc2cc(NC[C@H]3CNCCO3)c(C(F)(F)F)cn2)cn1 [SRA737] + Nc1ccn([C@@H]2O[C@H](CO)[C@@H](O)C2(F)F)c(=O)n1 [Gemcitabine] (first compound max 10 µM, 7x7, partner max 0.3 µM) . Its measured combination Emax is 0.857

For COc1nnc2ccc(N3CCC(c4ccc(OCCN5CCN(C)C(=O)[C@H]5C)cc4)CC3)nn12 [AZD5153] + C=CCn1c(=O)c2cnc(Nc3ccc(N4CCN(C)CC4)cc3)nc2n1-c1cccc(C(C)(C)O)n1 [AZD1775] (first compound max 1 µM, partner max 1 µM) the compound record lists combination Emax as 0.576

Entry Cc1c2c(nn1C)CSCc1cc(n(C)n1)CSc1cc(c3ccccc3c1)OCCCc1c(C(=O)O)n(C)c3c-2c(Cl)ccc13 [AZD5991] + Cc1cc2ncnn2cc1Nc1ncc2c(n1)n(C1CCOCC1)c(=O)n2C [AZD7648] (first compound max 1 µM, 7x7, partner max 10 µM) ; combination Emax = 0.249

Lab note: N#Cc1cnc(Nc2cc(NC[C@H]3CNCCO3)c(C(F)(F)F)cn2)cn1 [SRA737] + CCc1c2c(nc3ccc(O)cc13)-c1cc3c(c(=O)n1C2)COC(=O)[C@]3(O)CC [SN-38] (first compound max 10 µM, 7x7, partner max 0.3 µM) gave combination Emax of 0.759

###

- Tested on: COLO-680N (Esophageal Squamous Cell Carcinoma)
- measurement-description: combination Emax (second highest fraction inhibited in the dose matrix, 72 h); higher = more inhibition; extreme values may be limits of the assay
Threshold check on combination Emax: at or above 0.2 gives label 1, strictly below gives label 0.

Q. Hi, just wondering whether O=C(c1cc(Cc2n[nH]c(=O)c3ccccc23)ccc1F)N1CCN(C(=O)C2CC2)CC1 [Olaparib] + CN(CC[C@H](CSC1=CC=CC=C1)NC2=C(C=C(C=C2)S(=O)(=O)NC(=O)C3=CC=C(C=C3)N4CCC(CC4)[C@H](C5=CC=CC=C5C6=CC=C(C=C6)Cl)O)S(=O)(=O)C(F)(F)F)CCO [AZD4320] (first compound max 10 µM, 7x7, partner max 1 µM) shows combination Emax of 0.2 or higher.
A. label 0

Q. Evaluate Cc1c2c(nn1C)CSCc1cc(n(C)n1)CSc1cc(c3ccccc3c1)OCCCc1c(C(=O)O)n(C)c3c-2c(Cl)ccc13 [AZD5991] + CCN(CCO)CCCOc1ccc2c(Nc3cc(CC(=O)Nc4cccc(F)c4)[nH]n3)ncnc2c1 [AZD2811] (first compound max 1 µM, 7x7, partner max 1 µM) : combination Emax at minimum 0.2?
A. label 1

Q. Would you say CN(CCO)CC[C@H](CSc1ccccc1)Nc1ccc(S(=O)(=O)NC(=O)c2ccc(N3CCC([C@@H](O)c4ccccc4-c4ccc(Cl)cc4)CC3)cc2)cc1S(=O)(=O)C(F)(F)F [AZD4320] + CCN(CCO)CCCOc1ccc2c(Nc3cc(CC(=O)Nc4cccc(F)c4)[nH]n3)ncnc2c1 [AZD2811] (first compound max 1 µM, 7x7, partner max 1 µM) shows combination Emax at minimum 0.2?
A. label 0

Q. Exam item: decide whether the reported combination Emax for Cc1nc(-c2cn3c(n2)-c2ccc(-c4cnn(C(C)(C)C(N)=O)c4)cc2OCC3)n(C(C)C)n1 [Taselisib] + O=C(Nc1ccc2[nH]nc(-c3ccncc3)c2c1)[C@@H]1CCN(CC(=O)N2CCN(c3ccc(-c4ncccn4)cc3)CC2)C1 [SCH772984] (first compound max 10 µM, 7x7, partner max 5 µM) is at least 0.2.
A. label 1

Q. Hi team, for CCN(CCO)CCCOc1ccc2c(Nc3cc(CC(=O)Nc4cccc(F)c4)[nH]n3)ncnc2c1 [AZD2811] + C[C@@H]1COCCN1C2=NC(=NC(=C2)C3(CC3)[S@](=N)(=O)C)C4=C5C=CNC5=NC=C4 [AZD6738] (first compound max 1 µM, 7x7, partner max 10 µM) , is the recorded combination Emax at or above 0.2?
A. label 1

Q. // inclusive: combination Emax at least 0.2? input: CC(=O)c1c(C)c2cnc(Nc3ccc(N4CCNCC4)cn3)nc2n(C2CCCC2)c1=O [Palbociclib] + Cc1c2c(nn1C)CSCc1cc(n(C)n1)CSc1cc(c3ccccc3c1)OCCCc1c(C(=O)O)n(C)c3c-2c(Cl)ccc13 [AZD5991] (first compound max 10 µM, 7x7, partner max 1 µM)
A. label 1

###

Field: Bliss excess. Provide a value for each of the molecules that follow.
- System: RERF-GC-1B (Gastric Carcinoma);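 also: after 72 h of two-drug dosing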
- measurement-description: Bliss excess, mean over the matrix (fraction); higher = more synergy

The recorded Bliss excess for Cc1c2c(nn1C)CSCc1cc(n(C)n1)CSc1cc(c3ccccc3c1)OCCCc1c(C(=O)O)n(C)c3c-2c(Cl)ccc13 [AZD5991] + CCN(CCO)CCCOc1ccc2c(Nc3cc(CC(=O)Nc4cccc(F)c4)[nH]n3)ncnc2c1 [AZD2811] (first compound max 1 µM, 7x7, partner max 1 µM) is 0.014

The recorded Bliss excess for CN(C)CCCOc1ccc(-c2ccc3ncc4c(c3c2)n(C2CCOCC2)c(=O)n4C)cn1 [AZD0156] + CCN(CCO)CCCOc1ccc2c(Nc3cc(CC(=O)Nc4cccc(F)c4)[nH]n3)ncnc2c1 [AZD2811] (first compound max 1 µM, 7x7, partner max 1 µM) is 0.0292

Bliss excess measured on Cc1c2c(nn1C)CSCc1cc(n(C)n1)CSc1cc(c3ccccc3c1)OCCCc1c(C(=O)O)n(C)c3c-2c(Cl)ccc13 [AZD5991] + CC1(C)CCC(CN2CCN(c3ccc(C(=O)NS(=O)(=O)c4ccc(NCC5CCOCC5)c([N+](=O)[O-])c4)c(Oc4cnc5[nH]ccc5c4)c3)CC2)=C(c2ccc(Cl)cc2)C1 [Venetoclax] (first compound max 1 µM, 7x7, partner max 1 µM) = -0.0126

Reference for the values: the supplement of paper PMC11061612
